- Procedure Text: in vivo
- Measurement Setup: male, Swiss, mouse, po, 100 mg/kg
Readout Type: Cmax
The reply must contain the numeric value and, after it, the unit.

Task item: Requested read-out: Cmax. Entry: CON=C1CC(C)OC(OC2C(C)CC(C)(OC(=O)NC(C)(C)CNS(=O)(=O)c3ccccc3)C(=O)C(C)C(OC(=O)CC(C)C)C(C)C(C(C)COC3OC(C)C(O)C(OC)C3OC)OC(=O)C(C)C(OC3CC(C)N(C)CC(C)O3)C2C)C1O (stereo not shown)
Reply: 2.13 µg/mL

====

- Procedure Text: in vivo
- Measurement Setup: male, Swiss, mouse, po
Listed compounds paired with reported bioavailability
A number alone suffices; assume %.

See these solved cases before continuing.
Task item: Requested read-out: bioavailability. Entry: CON=C1CC(C)OC(OC2C(C)CC(C)(OC(=O)NC(C)(C)CNS(=O)(=O)c3ccccc3)C(=O)C(C)C(OC(=O)CC(C)C)C(C)C(C(C)COC3OC(C)C(O)C(OC)C3OC)OC(=O)C(C)C(OC3CC(C)N(C)CC(C)O3)C2C)C1O (stereo not shown)
Reply: 23

Task item: Requested read-out: bioavailability. Entry: COC1C(OCC(C)C2OC(=O)C(C)C(OC3CC(C)(O)C(O)C(C)O3)C(C)C(OC3OC(C)CC(=O)C3O)C(C)CC(C)(O)C(=O)C(C)C(OC(=O)CC(C)C)C2C)OC(C)C(O)C1OC (stereo not shown)
Reply: 22

Task item: Requested read-out: bioavailability. Entry: CON=C1C[C@@H](C)O[C@@H](O[C@@H]2[C@@H](C)[C@H](O[C@H]3C[C@@H](C)N(C)C[C@H](C)O3)[C@@H](C)C(=O)O[C@H](C(C)CO[C@@H]3O[C@H](C)[C@@H](O)[C@@H](OC)[C@H]3OC)[C@H](C)[C@@H](OC(=O)CC(C)C)[C@@H](C)C(=O)[C@@](C)(OC(=O)NCc3ccccc3)C[C@@H]2C)[C@@H]1O (stereo partly shown)
Reply: 17

Now take the following compound into account.
Task item: Requested read-out: bioavailability. Entry: `CO/N=C1\C[C@@H](C)O[C@@H](O[C@@H]2[C@@H](C)[C@H](O[C@H]3C[C@@](C)(O)[C@@H](O)[C@H](C)O3)[C@@H](C)C(=O)O[C@H]([C@@H](C)CO[C@@H]3O[C@H](C)[C@@H](O)[C@@H](OC)[C@H]3OC)[C@H](C)[C@@H](OC(=O)CC(C)C)[C@@H](C)C(=O)[C@@](C)(OC(=O)NCc3ccccc3)C[C@@H]2C)[C@@H]1O`
Reply: 21
